Test system: MDA-MB-468 breast
Assay: NCI-60 one-dose screen, 48 h
Conditions: 10 µM unless noted
This is part of a sample that, as a whole, favours compounds with a hit. Of some 83,000 tested, about 20% had one in any assay. The source made the active and inactive calls. How the source made its calls: active means growth percent below 10; inactive means the rest.
I would appreciate it if you answered using one of these outcomes: t for active, f for inactive

Completed entries (count: 5):
compound	subject.of.test	qualitative.label
COc1cccc2c1c1nc3cc(C)c(C)cc3nc1n2CCN(C)C	MDA-MB-468 breast	t
S=C(Nc1ccccc1)N1CCCCC1	MDA-MB-468 breast	f
N#Cc1c(-c2ccccc2)cc(-c2ccccc2)n(CCCC(=O)Nc2ccccc2N)c1=O	MDA-MB-468 breast	f
Cc1cc2nc3[nH]c4ccccc4c3nc2cc1C	MDA-MB-468 breast	f
COc1ccc(/C=N/Nc2ccnc3cc(Cl)ccc23)cc1Cl	MDA-MB-468 breast	t

Query: recorded result category for N=c1c2c(-c3ccccc3)c(-c3ccccc3)oc2ncn1NC(=O)c1cccnc1 in this test
f

Query: recorded result category for O=C(NC1CC(F)C1)c1cc2cccnc2n1-c1ccc(Cl)c(Cl)c1 (stereo not drawn) in this test
f

Query: recorded result category for CCOC(=O)C1=C(C)NC(=O)NC1c1cccs1 (stereo not drawn) in this test
f

Query: recorded result category for COC(=O)c1c(C)[nH]c(/C=C2\N=C(c3ccc[nH]3)C=C2OC)c1C in this test
t

Query: recorded result category for [Cu+].[NH-][C@H]1C[N-]C(=O)[C@H]([C@H]2CCN=C(N)N2)[N-]C(=O)/C(=C\NC(N)=O)[N-]C(=O)[C@H](CNC(=O)C[C@@H](N)CCCN)[N-]C(=O)[C@H](CO)[N-]C1=O in this test
f

Query: recorded result category for c1cc2ccc1CNCCN1CCNCc3ccc(cc3)Oc3ccc(cc3)CNCCN(CCNCc3ccc(cc3)O2)CCNCc2ccc(cc2)Oc2ccc(cc2)CNCC1 in this test
t
